# TESTED_TARGET: MMP-13 (Homo sapiens, UniProt P45452)
# METHOD_SUMMARY: MMP-13 inhibition (thiopeptide or fluorescent peptide substrate)
# Format: biochemical
# EXPERIMENTAL_PARAMETERS: read-out: MMP-13 % Inhib
QUANTITY_KIND: inhibition at 10 µM (%)
Numbers only, in %.

Worked cases, inhibition at 10 µM given:
>>> print(df.to_string())
                              smiles_string  recorded_number
0  CC#CCOc1ccc(S(=O)(=O)Oc2ccc(C)cc2C(=O)NO)cc1               27
1  CC#CCOc1ccc(S(=O)(=O)Oc2c(C(=O)NO)cc(C(C)C)cc2C(C)C)cc1               45
2  CC#CCOc1ccc(S(=O)(=O)Oc2cc3ccccc3cc2C(=O)NO)cc1               64
3  CC#CCOc1ccc(S(=O)(=O)Oc2c(OC)cccc2C(=O)NO)cc1               56

API: the following record is the query input.
[in] For the molecule CC#CCOc1ccc(S(=O)(=O)Oc2c(C)cccc2C(=O)NO)cc1 , give its measured inhibition at 10 µM value.
[out] 38

====

# TESTED_TARGET: MMP-1 (Homo sapiens, UniProt P03956)
# Sequence (P03956 100-469): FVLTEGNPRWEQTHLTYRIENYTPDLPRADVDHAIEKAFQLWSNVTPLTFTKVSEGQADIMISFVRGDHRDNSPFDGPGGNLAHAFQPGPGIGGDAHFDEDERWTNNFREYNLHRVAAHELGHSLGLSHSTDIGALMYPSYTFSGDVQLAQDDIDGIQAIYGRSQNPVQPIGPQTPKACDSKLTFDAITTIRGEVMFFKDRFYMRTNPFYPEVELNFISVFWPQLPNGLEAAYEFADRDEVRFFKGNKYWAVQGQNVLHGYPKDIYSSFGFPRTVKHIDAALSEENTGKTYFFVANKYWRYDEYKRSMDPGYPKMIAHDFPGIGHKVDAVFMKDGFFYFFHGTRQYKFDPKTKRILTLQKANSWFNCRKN
# METHOD_SUMMARY: MMP-1 inhibition (thiopeptide or fluorescent peptide substrate)
# Type: biochemical
# EXPERIMENTAL_PARAMETERS: read-out: MMP-1 % Inhib
QUANTITY_KIND: inhibition at 10 µM
Kindly write the number and append the unit.

>>> df
                              smiles_string  result
0  CC#CCOc1ccc(S(=O)(=O)Oc2c(C(=O)NO)cc(C(C)C)cc2C(C)C)cc1      3%
1  CC#CCOc1ccc(S(=O)(=O)Oc2c(OC)cccc2C(=O)NO)cc1      7%
2  CC#CCOc1ccc(S(=O)(=O)Oc2cc3ccccc3cc2C(=O)NO)cc1     16%
3  CC#CCOc1ccc(S(=O)(=O)Oc2ccc(C)cc2C(=O)NO)cc1     11%

Here is another molecule to look at.
[in] Specify inhibition at 10 µM for CC#CCOc1ccc(S(=O)(=O)Oc2c(C)cccc2C(=O)NO)cc1 and stop.
[out] 11%

Where do these numbers come from? They come from patent US7485667B2.
